# assay_system: T1, IRE1α lumenal domain (IRE1αLD) (human, UniProt O75460 24-443)
# T1 sequence: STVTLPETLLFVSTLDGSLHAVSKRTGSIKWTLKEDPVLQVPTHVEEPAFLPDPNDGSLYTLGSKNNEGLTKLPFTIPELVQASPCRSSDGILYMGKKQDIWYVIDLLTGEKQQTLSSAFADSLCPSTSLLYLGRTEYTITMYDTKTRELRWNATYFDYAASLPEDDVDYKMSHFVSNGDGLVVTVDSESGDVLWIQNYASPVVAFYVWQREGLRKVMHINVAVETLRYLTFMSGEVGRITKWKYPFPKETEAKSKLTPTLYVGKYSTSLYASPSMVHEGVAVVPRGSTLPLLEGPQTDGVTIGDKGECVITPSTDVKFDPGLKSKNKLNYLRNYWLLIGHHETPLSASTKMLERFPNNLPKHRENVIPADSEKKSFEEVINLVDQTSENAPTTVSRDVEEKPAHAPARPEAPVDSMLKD
# assay_remarks: […]
measured_quantity: pKd
Remember the convention: pKd equals -log10 of concentration in molar.

Ask: # query: pKd of entry IYGWYRVHFGVLDEQLHR [CTxA1_(I124-R141) peptide]
Reply: 4.36
